These entries and their values trace back to paper PMC6821195.

Biological target: T1, RBBP5 WD40 propeller (residues 2–333) (human, UniProt Q15291 2-333)
T1 chain: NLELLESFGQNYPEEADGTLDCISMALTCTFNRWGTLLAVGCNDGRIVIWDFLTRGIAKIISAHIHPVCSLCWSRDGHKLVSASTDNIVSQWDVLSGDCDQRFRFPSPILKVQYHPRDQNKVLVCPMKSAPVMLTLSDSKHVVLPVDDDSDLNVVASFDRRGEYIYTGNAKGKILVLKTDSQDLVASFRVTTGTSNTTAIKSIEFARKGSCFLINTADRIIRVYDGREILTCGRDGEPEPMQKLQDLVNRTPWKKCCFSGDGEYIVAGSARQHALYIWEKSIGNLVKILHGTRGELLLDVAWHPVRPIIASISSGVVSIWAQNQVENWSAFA
Test: ITC
reported endpoint: Kd (µM)
Express it in µM; write the number only.

Any idea what Kd was measured for RBBP5390-480d I457/L459A (protein) DEELEDSKALLYLPIAPEVEDPEENPYGPPPDGSQPPKKKPKTTNAEAQGVPNDEVHPLLGVKGDGKSK ?
108
